tested on: KARPAS-45 (T-Lymphoblastic Leukemia); experiment: combination Emax (second highest fraction inhibited in the dose matrix, 72 h); higher = more inhibition; extreme values may be limits of the assay
readout_label: combination Emax
Give bare numbers.

Here are 2 molecules together with their reported answers.
molecule	combination Emax
CC1(C)CCC(CN2CCN(c3ccc(C(=O)NS(=O)(=O)c4ccc(NCC5CCOCC5)c([N+](=O)[O-])c4)c(Oc4cnc5[nH]ccc5c4)c3)CC2)=C(c2ccc(Cl)cc2)C1 [Venetoclax] + COc1cc(Nc2ncc3c(n2)-c2ccc(Cl)cc2C(c2c(F)cccc2OC)=NC3)ccc1C(=O)O [Alisertib] (first compound max 1 µM, 7x7, partner max 10 µM)	0.982
CN(CCO)CC[C@H](CSc1ccccc1)Nc1ccc(S(=O)(=O)NC(=O)c2ccc(N3CCC([C@@H](O)c4ccccc4-c4ccc(Cl)cc4)CC3)cc2)cc1S(=O)(=O)C(F)(F)F [AZD4320] + Cc1cc2ncnn2cc1Nc1ncc2c(n1)n(C1CCOCC1)c(=O)n2C [AZD7648] (first compound max 1 µM, 7x7, partner max 10 µM)	0.991

As a next step, examine the molecule that follows.
QUERY: Name the reported combination Emax value associated with the molecule COc1cccc2c1C(=O)c1c(O)c3c(c(O)c1C2=O)C[C@@](O)(C(=O)CO)C[C@@H]3O[C@H]1C[C@H](N)[C@H](O)[C@H](C)O1 [Doxorubicin] + Cc1cc2ncnn2cc1Nc1ncc2c(n1)n(C1CCOCC1)c(=O)n2C [AZD7648] (first compound max 1 µM, 7x7, partner max 10 µM)
RESULT: 0.337

* * *

system: BFTC-905 (Bladder Carcinoma); test: Bliss excess, mean over the matrix (fraction); higher = more synergy;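 further: after 72 h of two-drug dosing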
Could you label it 1 (yes) if measured Bliss excess is -0.03 or higher, and 0 (no) otherwise?

# count of solved cases: 5
compound	measured_on	group_label
CC(=O)c1c(C)c2cnc(Nc3ccc(N4CCNCC4)cn3)nc2n(C2CCCC2)c1=O [Palbociclib] + Cc1c2c(nn1C)CSCc1cc(n(C)n1)CSc1cc(c3ccccc3c1)OCCCc1c(C(=O)O)n(C)c3c-2c(Cl)ccc13 [AZD5991] (first compound max 10 µM, 7x7, partner max 1 µM)	BFTC-905 (Bladder Carcinoma)	1 (yes)
CN(CCO)CC[C@H](CSc1ccccc1)Nc1ccc(S(=O)(=O)NC(=O)c2ccc(N3CCC([C@@H](O)c4ccccc4-c4ccc(Cl)cc4)CC3)cc2)cc1S(=O)(=O)C(F)(F)F [AZD4320] + CN(C)CCCOc1ccc(-c2ccc3ncc4c(c3c2)n(C2CCOCC2)c(=O)n4C)cn1 [AZD0156] (first compound max 1 µM, 7x7, partner max 1 µM)	BFTC-905 (Bladder Carcinoma)	1 (yes)
CCN(CCO)CCCOc1ccc2c(Nc3cc(CC(=O)Nc4cccc(F)c4)[nH]n3)ncnc2c1 [AZD2811] + C[C@@H]1COCCN1C2=NC(=NC(=C2)C3(CC3)[S@](=N)(=O)C)C4=C5C=CNC5=NC=C4 [AZD6738] (first compound max 1 µM, 7x7, partner max 10 µM)	BFTC-905 (Bladder Carcinoma)	0 (no)
CC(=O)c1c(C)c2cnc(Nc3ccc(N4CCNCC4)cn3)nc2n(C2CCCC2)c1=O [Palbociclib] + Cn1cnc2c(F)c(Nc3ccc(Br)cc3Cl)c(C(=O)NOCCO)cc21 [Selumetinib] (first compound max 10 µM, 7x7, partner max 10 µM)	BFTC-905 (Bladder Carcinoma)	1 (yes)
COc1cc2c(cc1OCCCCCOc1cc3c(cc1OC)C(=O)N1C=C(C)C[C@H]1C=N3)N=C[C@@H]1CC(C)=CN1C2=O [SG3199] + O=C(c1cc(Cc2n[nH]c(=O)c3ccccc23)ccc1F)N1CCN(C(=O)C2CC2)CC1 [Olaparib] (first compound max 0.001 µM, 7x7, partner max 10 µM)	BFTC-905 (Bladder Carcinoma)	0 (no)

QUERY: Determine whether this compound has Bliss excess no lower than -0.03: N#Cc1cnc(Nc2cc(NC[C@H]3CNCCO3)c(C(F)(F)F)cn2)cn1 [SRA737] + CCc1c2c(nc3ccc(O)cc13)-c1cc3c(c(=O)n1C2)COC(=O)[C@]3(O)CC [SN-38] (first compound max 10 µM, 7x7, partner max 0.3 µM)
RESULT: 1 (yes)

QUERY: Determine whether this compound has Bliss excess no lower than -0.03: CN(CCO)CC[C@H](CSc1ccccc1)Nc1ccc(S(=O)(=O)NC(=O)c2ccc(N3CCC([C@@H](O)c4ccccc4-c4ccc(Cl)cc4)CC3)cc2)cc1S(=O)(=O)C(F)(F)F [AZD4320] + C1CN(CCC1(C(=O)N[C@@H](CCO)C2=CC=C(C=C2)Cl)N)C3=NC=NC4=C3C=CN4 [Capivasertib] (first compound max 1 µM, 7x7, partner max 3 µM)
RESULT: 0 (no)
